experimental-details: Metabolic stability in human liver microsomes assessed as intrinsic clearance
Assay type: ADME, Microsome
condition-notes: read-out: CLH
observation-type: microsomal CLint (µL/min/mg)

mol | unit-annotation | val
CC(C)c1nn(CC(=O)N[C@@H]2CCCN(C)C2)c(=O)c2cc3sc(Cl)cc3n12 | µL/min/mg | 59

(1) CC(C)c1nn(CC(=O)N[C@@H]2CCCN(C)C2)c(=O)c2cc3scnc3n12
(2) CC(C)(O)c1nn(CC(=O)Nc2cccnc2)c(=O)c2cc3sccc3n12
(3) CCc1nn(CC(=O)Nc2cccc(O)c2)c(=O)c2cc3sccc3n12
Request: Put the items in sequence by microsomal CLint, from largest down. Labels, ranked as asked.
Response: 3, 2, 1
(3: 405 µL/min/mg, 2: 68 µL/min/mg, 1: 27 µL/min/mg)

(I) CC(C)c1nn(CC(=O)NC2CCOCC2)c(=O)c2cc3sc(Cl)cc3n12
(II) CCc1nn(CC(=O)NC)c(=O)c2cc3sccc3n12
Request: Of I and II , which carries the smaller reported microsomal CLint figure? Refer to your chosen item by its label in the answer.
Response: I

(1) CN1CCC[C@@H](NC(=O)Cn2nc(C(C)(C)O)n3c(cc4sc(Cl)cc43)c2=O)C1
(2) CCc1nn(CC(=O)Nc2cccc(C(C)=O)c2)c(=O)c2cc3sccc3n12
Request: Lab note: check whether 1 or 2 shows the higher recorded microsomal CLint. Refer to your chosen item by its label in the answer.
Response: 2

====

experimental-details: Equilibrium solubility of compound in DMSO at pH 6.8 by shake flask method
Format: physicochemical
observation-type: solubility (µM)

The cases that follow already have their solubility on record.
mol | val
CCCc1nn(CC(=O)Nc2cccnc2)c(=O)c2cc3sccc3n12 | 3
CC(C)c1nn(CC(=O)Nc2cccnc2)c(=O)c2cc3sccc3n12 | 19
CCc1nn(CC(=O)Nc2cccc(O)c2)c(=O)c2cc3sccc3n12 | 4
CCc1nn(CC(=O)Nc2cccnc2)c(=O)c2cc3sccc3n12 | 21
CCc1nn(CC(=O)NC)c(=O)c2cc3sccc3n12 | 128
O=C(Cn1ncn2c(cc3sccc32)c1=O)Nc1cccnc1 | 91
CCc1nn(CC(=O)Nc2cccc(C(C)=O)c2)c(=O)c2cc3sccc3n12 | 4
CCc1nn(CC(=O)Nc2ccncn2)c(=O)c2cc3sccc3n12 | 7
CC(C)c1nn(CC(=O)Nc2cccnc2)c(=O)c2cc3sc(Cl)cc3n12 | 10
CC(C)(O)c1nn(CC(=O)Nc2cccnc2)c(=O)c2cc3sccc3n12 | 23

(I) CCc1nn(CC(=O)N(C)c2ccccc2)c(=O)c2cc3sccc3n12
(II) O=C(Cn1nc(C2CC2)n2c(cc3sccc32)c1=O)Nc1cccnc1
(III) CCc1nn(CC(=O)Nc2ccccc2)c(=O)c2cc3sccc3n12
(IV) CC(C)c1nn(CC(=O)Nc2cccnc2)c(=O)c2cc3sc(F)cc3n12
(V) CC(C)c1nn(CC(=O)NC2CCOCC2)c(=O)c2cc3sc(Cl)cc3n12
Request: Put the items in sequence by solubility, from largest down. Labels, ranked as asked.
Response: IV, II, I, V, III

====

experimental-details: Drug concentration in blood of C57BL/6 mouse model of acute peritonitis at 50 mg/kg, po preadministered with compound for 1 hrs followed by LPS stimulation for 2 hrs and measured 15 mins after ATP addition by HPLC-MS/MS analysis
Assay type: ADME, organism-based
condition-notes: whole blood, read-out: Ct
observation-type: concentration at 3.25 h (nM)

mol | concentration at 3.25 h / nM
CC(C)c1nn(CC(=O)N[C@@H]2CCCN(C)C2)c(=O)c2cc3scnc3n12 | 113

(A) CC(C)(O)c1nn(CC(=O)N[C@H]2C[C@@](C)(O)C2)c(=O)c2cc3sc(Cl)cc3n12
(B) CN1CCC[C@@H](NC(=O)Cn2nc(C(C)(C)O)n3c(cc4sc(Cl)cc43)c2=O)C1
Request: Lab note: check whether A or B shows the higher recorded concentration at 3.25 h. Refer to your chosen item by its label in the answer.
Response: B
(B: 1680 nM, A: 65 nM)
